# Tested on: polyclonal antibody ab6982
# Assay remarks: Epitope mapping of polyclonal antibody ab6982 against cyclic peptides of Ad5 fiber and hexon (peptide array)
# Format: binding, rabbits
# Cond: cyclic peptides of hexon protein (clusters 8-16)
Recorded metric: antibody binding signal ranking from the microarray experiment

271 (DVDIETPDTHISY) [compound 271]; 048
266 (LYSEDVDIETPDT) [compound 266]; 040
220 (EINLEEEDDD) [compound 220]; 15
267 (KVVLYSEDVDIET) [compound 267]; 044
276 (DVDIETPDTH) [compound 276]; 054
258 (EVDEQAEQQKTHV) [compound 258]; 038

[ask] Can you share its antibody binding signal ranking from the microarray experiment? I mean this substance: 296 (PESYKDRMYSFFR) [compound 296]
[reply] 153

[ask] Can you share its antibody binding signal ranking from the microarray experiment? I mean this substance: 211 (LEINLEE) [compound 211]
[reply] 04

[ask] Can you share its antibody binding signal ranking from the microarray experiment? I mean this substance: 208 (ALEINLEEEDDDN) [compound 208]
[reply] 01

[ask] Can you share its antibody binding signal ranking from the microarray experiment? I mean this substance: 223 (NLEEEDDDNE) [compound 223]
[reply] 27

[ask] Can you share its antibody binding signal ranking from the microarray experiment? I mean this substance: 298 (TRYFSMW) [compound 298]
[reply] 073

[ask] Can you share its antibody binding signal ranking from the microarray experiment? I mean this substance: 257 (VDEQAEQQKT) [compound 257]
[reply] 036
